- target_of_assay: BACE-1 enzyme (Homo sapiens)
- Construct: purchased R & D Systems 931AS
- Sequence (P56817 46-457 limits assumed): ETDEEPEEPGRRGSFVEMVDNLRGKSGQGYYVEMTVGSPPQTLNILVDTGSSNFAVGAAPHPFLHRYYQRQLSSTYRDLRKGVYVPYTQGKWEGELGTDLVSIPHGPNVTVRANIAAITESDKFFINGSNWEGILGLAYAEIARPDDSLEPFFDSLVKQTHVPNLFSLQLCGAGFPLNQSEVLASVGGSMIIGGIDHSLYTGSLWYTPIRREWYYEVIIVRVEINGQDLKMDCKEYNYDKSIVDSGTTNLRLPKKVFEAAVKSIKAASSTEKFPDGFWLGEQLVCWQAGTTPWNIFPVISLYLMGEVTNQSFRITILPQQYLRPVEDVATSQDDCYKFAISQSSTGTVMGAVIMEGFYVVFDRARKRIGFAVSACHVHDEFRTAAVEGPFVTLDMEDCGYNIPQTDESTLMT
- protocol: BACE Fluorescence Resonance Energy Transfer (FRET) Assay
- Format: biochemical
- condition_set: pH 4-4.5, 30 min pre-incubation, about 1.5 hours reaction
// returns not satisfied unless IC50 is strictly below 0.3 µM, in which case satisfied

# structure_as_smiles, target_of_assay, class_name
records = [
    ("O=C(Nc1nc2cc(OCc3ccc(C(F)(F)F)cc3)ccc2[nH]1)c1cn2c(C(F)(F)F)cccc2n1", "BACE-1 enzyme (Homo sapiens)", "satisfied"),
    ("Cc1cccn2cc(C(=O)Nc3nc4cc(OC5CCCC5)ccc4[nH]3)nc12", "BACE-1 enzyme (Homo sapiens)", "not satisfied"),
    ("Cc1cccn2cc(C(=O)Nc3nc4cc(-c5cccc(S(C)(=O)=O)c5)ccc4[nH]3)nc12", "BACE-1 enzyme (Homo sapiens)", "not satisfied"),
    ("CC(C)(C)NCc1cccn2cc(C(=O)Nc3nc4cc(-c5cccc(C(F)(F)F)c5)ccc4[nH]3)nc12", "BACE-1 enzyme (Homo sapiens)", "not satisfied"),
    ("CN(C)Cc1ccc2nc(C(=O)Nc3nc4cc(-c5cccc(C(F)(F)F)c5)ccc4[nH]3)cn2c1", "BACE-1 enzyme (Homo sapiens)", "not satisfied"),
    ("Cc1cccc2nc(C(=O)Nc3nc4cc(-c5ccc(C(F)(F)F)cc5)ccc4[nH]3)cn12", "BACE-1 enzyme (Homo sapiens)", "satisfied"),
    ("CO[C@H]1CCN(c2cc(F)cn3cc(C(=O)Nc4nc5cc(-c6cc(F)cc(Cl)c6)ccc5[nH]4)nc23)C1", "BACE-1 enzyme (Homo sapiens)", "not satisfied"),
    ("CN(C)c1cccc2nc(C(=O)Nc3nc4cc(-c5cccc(C(F)(F)F)c5)ccc4[nH]3)cn12", "BACE-1 enzyme (Homo sapiens)", "not satisfied"),
    ("CN1CCC(c2cccc3nc(C(=O)Nc4nc5cc(-c6cccc(C(F)(F)F)c6)ccc5[nH]4)cn23)CC1", "BACE-1 enzyme (Homo sapiens)", "not satisfied"),
    ("Cc1cccn2cc(C(=O)Nc3nc4cc(-c5cc(Cl)ccc5Cl)ccc4[nH]3)nc12", "BACE-1 enzyme (Homo sapiens)", "satisfied"),
    ("O=C(Nc1nc2cc(-c3cccc(C(F)(F)F)c3)ccc2[nH]1)c1cn2c(C3=CCNCC3)cccc2n1", "BACE-1 enzyme (Homo sapiens)", "not satisfied"),
    ("O=C(Nc1nc2cc(OCc3ccc(C(F)(F)F)cc3)ccc2[nH]1)c1cn2ccccc2n1", "BACE-1 enzyme (Homo sapiens)", "satisfied"),
    ("Cc1cccc2nc(C(=O)Nc3nc4cc(-c5ccc(Cl)cc5)ccc4[nH]3)cn12", "BACE-1 enzyme (Homo sapiens)", "not satisfied"),
    ("CO[C@H]1CCN(c2cccc3nc(C(=O)Nc4nc5cc(-c6cc(F)cc(Cl)c6)ccc5[nH]4)cn23)C1", "BACE-1 enzyme (Homo sapiens)", "not satisfied"),
]

---

- Tested on: Aβ1-40 secreted from HEK293 cells stably expressing wildtype human APP695 protein (HEK-APPwt cells)
- protocol: Aβ Cell Based Assay (Aβ1-40 secretion, ELISA)
- condition_set: Homo sapiens, HEK293, 6 h, 6 hours incubation, reduction of Aβ1-40 secretion

# compound, readout_units, EC50
rows = [
    ("CC(C)CNCc1ccc2nc(C(=O)Nc3nc4cc(-c5cccc(C(F)(F)F)c5)ccc4[nH]3)cn2c1 [Example 176]", "µM", 3.91),
    ("O=C(Nc1nc2cc(-c3cccc(C(F)(F)F)c3)ccc2[nH]1)c1cn2ccc(CN3CCOCC3)cc2n1 [Example 201]", "µM", 0.87),
    ("Cc1cccc2nc(C(=O)Nc3nc4cc(-c5ccc(C(F)(F)F)cc5)ccc4[nH]3)cn12 [Example 23]", "µM", 0.66),
    ("COc1ccc(-c2ccc3[nH]c(NC(=O)c4cn5c(N6CCN(C)CC6)cccc5n4)nc3c2)cc1C(F)(F)F [Example 124]", "µM", 3.13),
    ("Cc1ccc2nc(C(=O)Nc3nc4cc(-c5cccc(C(F)(F)F)c5)ccc4[nH]3)cn2c1 [Example 59]", "µM", 3.16),
    ("O=C(Nc1nc2cc(-c3cccc(C(F)(F)F)c3)ccc2[nH]1)c1cn2cc(F)ccc2n1 [Example 112]", "µM", 1.94),
    ("Cc1cccn2cc(C(=O)Nc3nc4cc(-c5ccc(F)c(Cl)c5)ccc4[nH]3)nc12 [Example 65]", "µM", 0.96),
]

---

- target_of_assay: BACE-1 enzyme (Homo sapiens)
- Construct: purchased R & D Systems 931AS
- protocol: BACE Fluorescence Resonance Energy Transfer (FRET) Assay
- Type: biochemical
- condition_set: pH 4-4.5, 30 min pre-incubation, about 1.5 hours reaction
endpoint: IC50 (µM)

# structure_as_smiles, readout_units, quantitative_result
rows = [
    ("O=C(Nc1nc2cc(-c3cccc(C(F)(F)F)c3)ccc2[nH]1)c1cn2c(CNCCN3CCOCC3)cccc2n1", "µM", 0.42),
    ("Cc1cccc2nc(C(=O)Nc3nc4cc(-c5cc(C(F)(F)F)ccc5F)ccc4[nH]3)cn12", "µM", 0.26),
    ("Cc1cccn2cc(C(=O)Nc3nc4cc(-c5cccc(C(F)(F)F)c5)ccc4[nH]3)nc12", "µM", 0.52),
    ("COc1cc(-c2ccc3[nH]c(NC(=O)c4cn5c(C)cccc5n4)nc3c2)cc(C(F)(F)F)c1", "µM", 0.39),
]

---

- Test system: Aβ1-40 secreted from HEK293 cells stably expressing wildtype human APP695 protein (HEK-APPwt cells)
- protocol: Aβ Cell Based Assay (Aβ1-40 secretion, ELISA)
- condition_set: Homo sapiens, HEK293, 6 h, 6 hours incubation, reduction of Aβ1-40 secretion
endpoint: log10(EC50) (log10 of the value in µM)

# compound, quantitative_result
rows = [
    ("CCOc1ccc(-c2ccc3[nH]c(NC(=O)c4cn5c(C)cccc5n4)nc3c2)cc1F [Example 80]", 0.12),
    ("O=C(Nc1nc2cc(-c3cccc(C(F)(F)F)c3)ccc2[nH]1)c1cn2ccc(CNCc3ccncc3)cc2n1 [Example 204]", 0.37),
    ("Cc1cccc2nc(C(=O)Nc3nc4cc(-c5ccsc5)ccc4[nH]3)cn12 [Example 102]", 0.39),
    ("CNC(=O)c1cccc2nc(C(=O)Nc3nc4cc(-c5cc(F)cc(Cl)c5)ccc4[nH]3)cn12 [Example 226]", 0.33),
    ("Cc1cccc2nc(C(=O)Nc3nc4cc(-c5ccc(C(C)(C)C)cc5)ccc4[nH]3)cn12 [Example 77]", -0.07),
    ("Cc1cccc2nc(C(=O)Nc3nc4cc(-c5ccc(F)c(Cl)c5)ccc4[nH]3)cn12 [Example 64]", -0.85),
    ("Cc1cc(-c2ccc3[nH]c(NC(=O)c4cn5c(C)cccc5n4)nc3c2)ccc1Cl [Example 99]", -0.92),
    ("COc1c(-c2ccc3[nH]c(NC(=O)c4cn5c(C)cccc5n4)nc3c2)cccc1C(F)(F)F [Example 110]", -0.12),
]

---

- target_of_assay: BACE-1 enzyme (Homo sapiens)
- Construct: purchased R & D Systems 931AS
- protocol: BACE Fluorescence Resonance Energy Transfer (FRET) Assay
- Assay type: biochemical
- condition_set: pH 4-4.5, 30 min pre-incubation, about 1.5 hours reaction
Entries and their measured IC50 follow.
endpoint: IC50 (µM)

# molecule, endpoint, readout_units, quantitative_result
measured = [
    ("Cc1cccc2nc(C(=O)Nc3nc4cc(OCc5cc(F)cc(C(F)(F)F)c5)ccc4[nH]3)cn12 [Example 43]", "IC50", "µM", 0.3),
    ("O=C(O)c1ccn2cc(C(=O)Nc3nc4cc(-c5cc(F)cc(Cl)c5)ccc4[nH]3)nc2c1 [Example 244]", "IC50", "µM", 3.64),
    ("O=C(Nc1nc2cc(-c3cccc(C(F)(F)F)c3)ccc2[nH]1)c1cn2c(-c3ccccc3)cccc2n1 [Example 125]", "IC50", "µM", 1.17),
    ("Cc1cc(-c2ccc3[nH]c(NC(=O)c4cn5c(C)cccc5n4)nc3c2)ccc1Cl [Example 99]", "IC50", "µM", 0.27),
    ("Cc1cccc2nc(C(=O)Nc3nc4cc(-c5ccc(F)c(F)c5)ccc4[nH]3)cn12 [Example 63]", "IC50", "µM", 1.15),
    ("Cc1cccn2cc(C(=O)Nc3nc4cc(-c5cc(F)cc(C(F)(F)F)c5)ccc4[nH]3)nc12 [Example 95]", "IC50", "µM", 0.32),
    ("O=C(Nc1nc2cc(-c3cc(F)cc(Cl)c3)ccc2[nH]1)c1cn2cc(F)cc(OCCN3CCOCC3)c2n1 [Example 145]", "IC50", "µM", 0.52),
]
